The origin of these recorded values is patent US12037395.

biological target: human PD-1 on PD-1 Effector Cell Line (Genscript, GS-J2/PD-1) (human, UniProt Q15116 25-288); assay: cell-based or functional assay
Sequence (Q15116 25-288): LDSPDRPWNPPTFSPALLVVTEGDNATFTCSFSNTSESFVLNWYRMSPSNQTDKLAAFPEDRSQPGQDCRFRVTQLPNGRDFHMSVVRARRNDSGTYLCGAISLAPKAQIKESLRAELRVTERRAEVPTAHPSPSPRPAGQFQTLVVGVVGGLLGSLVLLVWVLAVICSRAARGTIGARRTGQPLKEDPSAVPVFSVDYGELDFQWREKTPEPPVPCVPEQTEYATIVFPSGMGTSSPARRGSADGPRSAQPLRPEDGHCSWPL
Listed here are binders together with their documented Reporter Activation (EC50, nM) human PD-1 cell (NFAT-luc)/human PD-L1 cell.
quantity_kind: Reporter Activation (EC50, nM) human PD-1 cell (NFAT-luc)/human PD-L1 cell

INSERT INTO results (binder, observed_measurement) VALUES
  ('mouse anti-PD-1 monoclonal antibody C1C5 (antibody, mouse IgG1, kappa, V domains shown, Purified from hybridoma; Constant regions tied only generically to ''mouse antibodies'') VH: QIQLVQSGPELKKPGETVKISCKASGYTFTNYGINWVKQAPGKGLKWMGWINTYSGEPTYSDDFKGRFAFSLETSASTAYLQINNLKNEDTSTYFCVRQGDFDYEDAMDYWGQGTSVTVSS VL: DVLMTQSPLSLPVSLGDQASISCRSSQSIVHSNGHIYLEWYLQKPGQSPKLLIYKVSKRFSGVPDRFSGSGSGTDFTLKISRVEAEDLGVYYCFQGSHGTFGGGTKLEIKR', 23.4),
  ('mouse anti-PD-1 monoclonal antibody D1A1 (antibody, mouse IgG1, kappa, V domains shown, Purified from hybridoma; Constant regions tied only generically to ''mouse antibodies'') VH: EVMLVESGGGLVKPGGSLKLSCAASGFTFSNYAMSWVRQTPEKRLEWVATISGGGGNIYYPDSVKGRFTISRDNARNTLYLQMSSLRSEDTALYYCASPYANYVWYLDVWGAGTTVTVSS VL: DIQMTQTTSSLSASLGDRVTISCRASQDISNYLNWYQQKPDGTVKLLIYYTSRLHSGVPSRFSGSGSGTDFSLTISNLEEEDIATYFCQQSNALPWTFGGGTKLEIKR', 9.13),
  ('mouse anti-PD-1 monoclonal antibody C1F4 (antibody, mouse IgG1, kappa, V domains shown, Purified from hybridoma; Constant regions tied only generically to ''mouse antibodies'') VH: QVQLQQSGAELVRPGVSVKISCKGSGYKFTDYAMHWVRQSHAKSLEWIGIISTYSGDVSFNQNFKGKATMTVDKSSSTAYMELARLTSEDSAIYYCSRLGITAGFAYWGQGTLVTVSA VL: DIVMTQSQKFMSTSVGDRVTITCKASQNVRTAVAWYQQKPGQSPKALIYLASNRHTGVPDRFTGSGSGTDFTLTISNVQSKDLADYFCLQHWNYPYTFGGGTKLEIKR', 13.2),
  ('mouse anti-PD-1 monoclonal antibody C1F5 (antibody, mouse IgG1, kappa, V domains shown, Purified from hybridoma; Constant regions tied only generically to ''mouse antibodies'') VH: EVQLVESGGGLVKPGGSLKLSCAASGFAFSSYDMSWVRQTPEKRLEWVAYITGGGSSSFYPDTVKGRFTISRDNSKNTLYLQMTSLRSEDTAMYYCASPYLSYFDYWGQGTTLTVSS VL: DIVLTQSPATLSVTPGDSVSLSCRASQSISNNLHWYQQKSHESPRLLIKYGSQSMSGIPSRFSGSGSGTDFTLVINSVETEDFGMYFCQQSNSWPLTFGAGTKLELKR', 7.58);
